Cited source for all entries: paper PMC10392058

# target.or.test.system: BCRP (Homo sapiens)
# Sequence (Q9UNQ0 whole entry): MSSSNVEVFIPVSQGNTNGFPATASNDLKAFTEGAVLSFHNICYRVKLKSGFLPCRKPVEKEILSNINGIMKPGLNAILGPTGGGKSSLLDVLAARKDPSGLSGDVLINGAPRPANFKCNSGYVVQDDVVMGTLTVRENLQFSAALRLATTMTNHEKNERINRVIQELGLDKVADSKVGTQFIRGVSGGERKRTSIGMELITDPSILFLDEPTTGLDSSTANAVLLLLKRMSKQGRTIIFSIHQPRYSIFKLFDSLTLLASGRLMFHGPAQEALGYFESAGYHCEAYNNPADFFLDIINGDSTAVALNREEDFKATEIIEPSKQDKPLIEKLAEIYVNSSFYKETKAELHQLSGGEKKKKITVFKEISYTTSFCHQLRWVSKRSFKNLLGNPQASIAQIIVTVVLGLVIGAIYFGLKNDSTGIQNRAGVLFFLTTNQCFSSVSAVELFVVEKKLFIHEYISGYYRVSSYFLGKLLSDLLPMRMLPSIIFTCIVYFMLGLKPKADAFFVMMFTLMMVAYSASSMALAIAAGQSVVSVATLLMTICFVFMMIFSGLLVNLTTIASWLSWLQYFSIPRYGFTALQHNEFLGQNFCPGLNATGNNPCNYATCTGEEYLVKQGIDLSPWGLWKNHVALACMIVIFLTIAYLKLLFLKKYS
# protocol.notes: MDCKII bidirectional permeability, BCRP expressing cells
# test.settings: dog
measured.attribute: Papp B→A at 1 μM (×10⁻⁶ cm/s)
Write it as a number; the unit ×10⁻⁶ cm/s goes unstated.

stdin: Would you kindly share the measured Papp B→A at 1 μM for COc1cc2nc(N3CCN(C(=O)c4ccco4)CC3)nc(N)c2cc1OC ?
stdout: 53.1
